# testedSystem: aldehyde dehydrogenase 2 (ALDH2) (Homo sapiens)
# Construct: purchased ATGen Inc
# Sequence (P05091 18-517): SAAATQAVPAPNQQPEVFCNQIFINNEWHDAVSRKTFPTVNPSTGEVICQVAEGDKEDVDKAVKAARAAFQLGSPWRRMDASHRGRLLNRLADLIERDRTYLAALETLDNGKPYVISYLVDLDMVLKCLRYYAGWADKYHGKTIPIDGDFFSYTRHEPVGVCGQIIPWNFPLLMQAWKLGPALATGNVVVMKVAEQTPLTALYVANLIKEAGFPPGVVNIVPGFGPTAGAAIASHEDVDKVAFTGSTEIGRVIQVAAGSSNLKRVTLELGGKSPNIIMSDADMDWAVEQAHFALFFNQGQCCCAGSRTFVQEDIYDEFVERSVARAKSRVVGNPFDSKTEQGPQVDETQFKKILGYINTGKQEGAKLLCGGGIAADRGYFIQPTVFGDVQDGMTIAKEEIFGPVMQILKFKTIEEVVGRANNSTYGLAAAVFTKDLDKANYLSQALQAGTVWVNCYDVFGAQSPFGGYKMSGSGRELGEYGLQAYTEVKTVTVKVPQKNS
# testSummary: Effects of compounds on the acetaldehyde oxidation rate by ALDH2 (PicoProbe Aldehyde dehydrogenase Activity Assay Kit)
# Format: biochemical
# conditionsUsed: compound concentration 10 μM; read-out: acetaldehyde oxidation rate (rate in the absence of the compounds = 100)
outcomeMeasure: activity at 10 µM (%)
Return type: number; implicit unit %.

Sample answers from the record:
COCc1ccc(CNC(=O)c2c(Cl)cccc2Cl)cc1 [Example 3] = 156
COCc1ccc(CNC(=O)c2c(Cl)cccc2Cl)cc1F [Example 1] = 179

-- ask Record lookup: for aldehyde dehydrogenase 2 (ALDH2) (Homo sapiens), what activity at 10 µM belongs to COCc1ccc(CNC(=O)c2c(Cl)cccc2Cl)cc1C [Example 4] ?
-- reply 175
